All values here come from the RNAGym collection of RNA variant scans (doi:10.7554/elife.80360).

This listing pairs variants with measured self-cleavage.
B1: HDV Ribozyme (parent)
chain: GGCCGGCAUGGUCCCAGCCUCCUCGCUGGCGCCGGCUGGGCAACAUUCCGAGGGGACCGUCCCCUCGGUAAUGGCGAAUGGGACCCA

variants of: B1; assay: self-cleavage, relative activity (ratio to wild type); higher = more cleavage; co-transcriptional
Please reply with the value in numeric form only.

| SEQUENCE_CHAIN | self-cleavage |
| --- | --- |
| GGCCGGCAUGGUCCCAGCCGCCUCGCUGGCGCCGGCUGGGCAACAUUCCGAGGCGACCGUCCCCUCGGUAAUGGCGAAUGGGACCCA | 0.571 |
| GGCCGGCAUGGUCCCAGCCUCCUCGCUGGCGCCGGCUGGGCAACAUUCCGAGGGGACCGUCCCCUCGGUAAUGUCAAAUGGGACCCA | 0.453 |
| GGCCGGCAUGGUCCCAGCCUCCUCGCUGGUGCCGGCUGGGCAACAUUCCGAGGGGACCGUCCCCUGGGUAAUGGCGAAUGGGACCCA | 0.607 |
| GGCCGGCAUGGUCCCAGCCUCCUGGCUGGCGCCGGCUGGGCAACAUUCCGAGGGGACCGUCCCCUCGGUAAUGGCGAAUGGCACCCA | 0 |

Lab note: next variant to report on.
So what does the record say about self-cleavage for `GGCCGGCAUGGUCCCAGCCUGCUCGCUGGCGCCGGCUGGGCAACAUUCCGAGGGGACCGUCCCCUCGGUAGUGGCGAAUGGGACCCA` ? 0.0594
